- target-system: T1, Rhesus SLC34A2 (Rhesus, UniProt F7HDA3 1-690)
- T1 construct: whole, on cells
- T1 sequence: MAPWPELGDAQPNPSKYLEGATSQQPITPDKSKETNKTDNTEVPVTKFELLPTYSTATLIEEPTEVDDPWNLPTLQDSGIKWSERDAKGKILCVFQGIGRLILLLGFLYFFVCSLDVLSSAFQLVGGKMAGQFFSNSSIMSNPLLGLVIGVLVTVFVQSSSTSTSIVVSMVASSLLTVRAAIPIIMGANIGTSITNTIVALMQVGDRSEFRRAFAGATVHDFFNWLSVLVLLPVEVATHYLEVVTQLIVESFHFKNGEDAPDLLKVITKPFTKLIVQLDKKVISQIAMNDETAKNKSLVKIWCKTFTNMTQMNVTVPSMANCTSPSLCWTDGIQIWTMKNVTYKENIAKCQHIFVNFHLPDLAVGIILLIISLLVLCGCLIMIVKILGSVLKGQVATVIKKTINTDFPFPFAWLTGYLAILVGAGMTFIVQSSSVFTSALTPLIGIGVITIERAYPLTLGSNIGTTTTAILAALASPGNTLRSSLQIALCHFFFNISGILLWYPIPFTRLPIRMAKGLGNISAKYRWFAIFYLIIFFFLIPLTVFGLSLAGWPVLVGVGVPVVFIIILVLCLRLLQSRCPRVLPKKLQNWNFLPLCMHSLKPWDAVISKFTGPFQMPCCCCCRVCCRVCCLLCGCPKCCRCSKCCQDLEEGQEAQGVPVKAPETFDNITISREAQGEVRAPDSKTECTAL
- test-protocol: FACS, HEK293/Rhesus SLC34A2 cells
endpoint-name: pEC50
Scale explanation: pEC50 corresponds to minus log10 of a concentration expressed in moles per litre.

Prompt: Which pEC50 is listed for 30H9B8F9.p1.z5 hIgG1 (antibody, V domains shown, humanized hIgG1) VH: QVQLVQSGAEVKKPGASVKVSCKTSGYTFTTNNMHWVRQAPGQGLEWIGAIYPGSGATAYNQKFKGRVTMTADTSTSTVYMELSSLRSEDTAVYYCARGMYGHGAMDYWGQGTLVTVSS VL: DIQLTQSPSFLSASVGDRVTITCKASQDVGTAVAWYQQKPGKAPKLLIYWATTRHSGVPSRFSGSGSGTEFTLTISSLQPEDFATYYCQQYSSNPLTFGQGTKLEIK ?
Response: 9.15

Prompt: Further, for 91C9F1.p1.z7 hIgG1 (antibody, V domains shown, humanized hIgG1) VH: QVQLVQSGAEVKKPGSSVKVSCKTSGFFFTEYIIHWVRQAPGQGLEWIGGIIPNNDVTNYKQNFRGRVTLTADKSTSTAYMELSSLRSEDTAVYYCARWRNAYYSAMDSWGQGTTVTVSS VL: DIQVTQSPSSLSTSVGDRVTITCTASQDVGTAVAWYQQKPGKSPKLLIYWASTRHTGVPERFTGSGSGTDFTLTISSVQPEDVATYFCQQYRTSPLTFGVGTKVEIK ?
Response: 8.38

Prompt: Further, for 62G10E4G8.p3.z15 hIgG1 (antibody, V domains shown, humanized hIgG1) VH: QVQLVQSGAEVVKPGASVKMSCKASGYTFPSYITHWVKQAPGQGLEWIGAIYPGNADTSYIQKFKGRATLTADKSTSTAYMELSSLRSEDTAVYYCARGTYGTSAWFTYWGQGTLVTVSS VL: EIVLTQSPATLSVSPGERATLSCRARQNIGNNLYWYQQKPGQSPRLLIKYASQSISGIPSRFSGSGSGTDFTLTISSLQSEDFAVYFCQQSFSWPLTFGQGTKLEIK ?
Response: 8.85

Prompt: Further, for 63A11D5B4.p1.z9 hIgG1 (antibody, V domains shown, humanized hIgG1) VH: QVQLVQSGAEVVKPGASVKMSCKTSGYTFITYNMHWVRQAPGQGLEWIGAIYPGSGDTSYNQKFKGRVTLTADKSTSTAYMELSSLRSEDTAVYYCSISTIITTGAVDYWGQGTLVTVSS VL: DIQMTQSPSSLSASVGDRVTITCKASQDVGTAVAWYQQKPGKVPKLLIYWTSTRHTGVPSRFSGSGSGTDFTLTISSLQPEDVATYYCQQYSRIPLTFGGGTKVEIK ?
Response: 8.80
